Reference for the values: patent US20220002417A1

Consider the following binders; for each one, report its kon.
# tested-on: T1, human PD-L1 extracellular domain (human, UniProt Q9NZQ7 19-238)
# T1 construct: also called recombinant PD-L1; recombinant human PD-L1 extracellular domain protein
# test-description: BLI (Octet Red 96), antibody on anti-human Fc biosensor, PD-L1 ECD in solution, 1:1 global fit
One number for each entry, in M⁻¹ s⁻¹.

Some solved entries appear below for comparison.
{"binder": "AB1 (rabbit/human chimeric anti-PD-L1 antibody) (antibody, human IgG1, kappa, V domains shown, Rabbit variable domains on human IgG1 / human kappa constant domains; purified by protein A from HEK-293 supernatants; also called AB1 CHIMERIC) VH: QEQLVESGGGLVQPEGSLTLTCKASGFSFSSGYDMCWVRRAPGKGLEWIACIAAGSAGITYDANWAKGRFTISKTSSTTVTLQMTSLTAADTATYFCARSAFSFDYAMDLWGPGTLVTVSS VL: DPVLTQTPASVEVAVGGTVTIKCQASQSISSHLNWYQQKPGQPPKLLIYKASTLASGVPSRFKGSGSGTEFTLTISSVQCDNAATYYCQQGYSWGNVDNVFGGGTEVVVKR", "kon, M⁻¹ s⁻¹": 433000}
{"binder": "AB4 (rabbit/human chimeric anti-PD-L1 antibody) (antibody, human IgG1, kappa, V domains shown, Rabbit variable domains on human IgG1 / human kappa constant domains; also called AB4 CHIMERIC) VH: QSVEESGGRLVTPGTPLTLTCTVSGIDLSVINMGWVRQAPGEGLEWIGTITYVGNTYYASWAKGRFTISKTSTTVDLKITSPTTEDTATYFCARESGTIYYSYFNLWGQGTLVTVSS VL: AFELTQTPASVSEPVGGTVTIKCQASESISNYLSWYQQIPGQPPNLLIYYASNLASGVPSRFKGSGSGTEFTLTISDLECADAATYYCQSYYGGGSAYTFGGGTEVVVKR", "kon, M⁻¹ s⁻¹": 417000}
{"binder": "AB5 (rabbit/human chimeric anti-PD-L1 antibody) (antibody, human IgG1, kappa, V domains shown, Rabbit variable domains on human IgG1 / human kappa constant domains; also called AB5 CHIMERIC) VH: QSVEESGGRLVTPGTPLTLTCTVSGIDLNTYDMIWVRQAPGKGLEWIGIITYSGSRYYANWAKGRFTISKTSTTVDLRITSPTTEDTATYFCARDYMSGSHLWGPGTLVTVSS VL: AYDMTQTPASVEVAVGGTVTIKCQASEDIYSFLAWYQLKPGQSPKLLIHSASSLASGVSSRFKGSGSGTHFTLTISGVECADAATYYCQQGYGKNNVDNAFGGGTEVVVKR", "kon, M⁻¹ s⁻¹": 613000}

Name the recorded kon for AB4HU (humanized form of antibody AB4) (antibody, human IgG1, kappa, V domains shown, Humanized, human gamma-1 / kappa constant domains) VH: EVQLVESGGGLVQPGGSLRLSCTVSGIDLSVINMGWVRQAPGKGLEWIGTITYVGNTYYASWAKGRFTISKTSTTVDLKITSPTTEDTAVYYCARESGTIYYSYFNLWGQGTLVTVSS VL: AFELTQSPSSLSASVGDRVTIKCQASESISNYLSWYQQIPGKVPKLLIYYASNLASGVPSRFSGSGSGTDFTLTISSLQPEDVATYYCQSYYGGGSAYTFGGGTKVEIKR .
451000
